- Test system: Leishmania donovani
- protocol.description: Antileishmanial activity against Leishmania donovani MHOM-ET-67/L82 axenic amastigotes
- Type: functional, organism-based
pIC50: −log10 of the molar value.
Outcome label depends on pIC50 relative to 7: at/above gives true, below gives false.

// below: answered molecules
[[record]]
molecule_smiles = "CCN(CC)c1ccc2nc3ccc(N(CC)CC)cc3[o+]c2c1.[Cl-]"
target = "Leishmania donovani"
group = "false"

[[record]]
molecule_smiles = "CCCN(CCC)c1ccc2nc3ccc(N4CCCC4)cc3[o+]c2c1.[Cl-]"
target = "Leishmania donovani"
group = "true"

[[record]]
molecule_smiles = "CN(C)c1ccc2nc3ccc(N4CCCC4)cc3[o+]c2c1.[Cl-]"
target = "Leishmania donovani"
group = "false"


Please turn your attention to the following entry.
pIC50 >= 7 for CN(C)c1ccc2nc3ccc(N4CCOCC4)cc3[o+]c2c1.[Cl-] ? false

====

- System: Leishmania donovani
- protocol.description: Antileishmanial activity against Leishmania donovani MHOM-ET-67/L82 axenic amastigotes
- Assay type: functional, organism-based
pIC50: −log10 of the molar value.
Outcome label depends on pIC50 relative to 6: at/above gives rule met, below gives rule not met.

// below: answered compounds
[[record]]
molecule_smiles = "CN(C)c1ccc2nc3ccc(N4CCCCC4)cc3[o+]c2c1.[Cl-]"
group = "rule not met"

[[record]]
molecule_smiles = "CN(C)c1ccc2nc3ccc(N4CCSCC4)cc3[o+]c2c1.[Cl-]"
group = "rule not met"

[[record]]
molecule_smiles = "CCN(CC)c1ccc2nc3ccc(N4CCOCC4)cc3[o+]c2c1.[Cl-]"
group = "rule not met"


Please turn your attention to the following entry.
pIC50 >= 6 for CCCCN(CCCC)c1ccc2nc3ccc(N4CCCCC4)cc3[o+]c2c1.[Cl-] ? rule met

====

# Ratio IC50 per record follows
- protocol.description: Selectivity index, Ratio of IC50 for rat L6 cells to IC50 for Trypanosoma cruzi Tulahuen C2C4
- Assay type: functional

Example cases with answers are listed next.
[[record]]
molecule_smiles = "CCCN(CCC)c1ccc2nc3ccc(N4CCOCC4)cc3[o+]c2c1.[Cl-]"
result = 47.6

[[record]]
molecule_smiles = "CN(C)c1ccc2nc3ccc(N4CCOCC4)cc3[o+]c2c1.[Cl-]"
result = 9.8

[[record]]
molecule_smiles = "CN(C)c1ccc2nc3ccc(N4CCCC4)cc3[o+]c2c1.[Cl-]"
result = 51

[[record]]
molecule_smiles = "CCN(CC)c1ccc2nc3ccc(N4CCCC4)cc3[o+]c2c1.[Cl-]"
result = 139

[[record]]
molecule_smiles = "CCCN(CCC)c1ccc2nc3ccc(N4CCSCC4)cc3[o+]c2c1.[Cl-]"
result = 43.1

[[record]]
molecule_smiles = "[Cl-].c1cc2nc3ccc(N4CCCCC4)cc3[o+]c2cc1N1CCCCC1"
result = 67.7

[[record]]
molecule_smiles = "CCN(CC)c1ccc2nc3ccc(N4CCCCC4)cc3[o+]c2c1.[Cl-]"
result = 132.8

[[record]]
molecule_smiles = "CCCN(CCC)c1ccc2nc3ccc(N(CCC)CCC)cc3[o+]c2c1.[Cl-]"
result = 23.6

[[record]]
molecule_smiles = "CCCCCCN(CCCCCC)c1ccc2nc3ccc(N4CCCCC4)cc3[o+]c2c1.[Cl-]"
result = 9.6


Now look at this entry.
Could you tell me which Ratio IC50 is on file for [Cl-].c1cc2nc3ccc(N4CCOCC4)cc3[o+]c2cc1N1CCOCC1 ? 4

Source listed as ChEMBL document CHEMBL1150378.
